Experiment: in vivo
Settings: nude, mouse, po, 100 mg/kg
Assay metric: bioavailability (%)
Provide only the numeric value, understood in %.

bioavailability reading for O=c1cc(-c2ccnc(NC3CCOCC3)n2)ccn1[C@H](CO)c1ccc(Cl)c(F)c1 : 139

====

Assay: in vivo
Settings: dog, po, 5 mg/kg
Assay metric: bioavailability (%)
Provide only the numeric value, understood in %.

bioavailability reading for O=c1cc(-c2ccnc(NC3CCOCC3)n2)ccn1[C@H](CO)c1ccc(Cl)c(F)c1 : 46

====

Assay: in vivo
Details: nude, mouse, plasma, po, 5 mg/kg
Assay metric: AUC
Record the result as a number with its unit.

AUC reading for O=c1cc(-c2ccnc(NC3CCOCC3)n2)ccn1[C@H](CO)c1ccc(Cl)c(F)c1 : 5.4 µM·h

====

Assay: in vivo
Details: nude, mouse, plasma, po, 30 mg/kg
Assay metric: AUC (µM·h)
Provide only the numeric value, understood in µM·h.

AUC reading for O=c1cc(-c2ccnc(NC3CCOCC3)n2)ccn1[C@H](CO)c1ccc(Cl)c(F)c1 : 46.8

====

Assay: in vitro
Settings: dog, MDCK
Assay metric: Papp A→B
Record the result as a number with its unit.

Papp A→B reading for O=c1cc(-c2ccnc(NC3CCOCC3)n2)ccn1[C@H](CO)c1cccc(Cl)c1 : 8.5 ×10⁻⁶ cm/s

Papp A→B reading for O=c1cc(-c2ccnc(NC3CCOCC3)n2)ccn1[C@H](CO)c1ccc(F)c(Cl)c1 : 4.6 ×10⁻⁶ cm/s

Papp A→B reading for O=c1cc(-c2ccnc(NC3CCOCC3)n2)ccn1[C@H](CO)c1ccc(Cl)c(F)c1 : 11.3 ×10⁻⁶ cm/s

Papp A→B reading for O=c1cc(-c2ccnc(NC3CCOCC3)n2)ccn1[C@H](CO)c1cccc(F)c1 : 5.5 ×10⁻⁶ cm/s

====

Experiment: in vivo
Settings: dog, plasma, po, 5 mg/kg
Assay metric: AUC (µM·h)
Provide only the numeric value, understood in µM·h.

AUC reading for O=c1cc(-c2ccnc(NC3CCOCC3)n2)ccn1[C@H](CO)c1ccc(Cl)c(F)c1 : 4.87

====

Test: in vivo
Details: CD-1, mouse, po, 5 mg/kg
Entries annotated with measured bioavailability
Provide only the numeric value, understood in %.

Before answering, review these 3 worked examples.
O=c1cc(-c2ccnc(NC3CCOCC3)n2)ccn1[C@H](CO)c1cccc(Cl)c1; 38
O=c1cc(-c2ccnc(NC3CCOCC3)n2)ccn1[C@H](CO)c1cccc(F)c1; 36
O=c1cc(-c2ccnc(NC3CCOCC3)n2)ccn1[C@H](CO)c1ccc(Cl)c(F)c1; 66

Now, please, on to the next compound.
bioavailability reading for O=c1cc(-c2ccnc(NC3CCOCC3)n2)ccn1[C@H](CO)c1ccc(F)c(Cl)c1 : 76

====

Assay: in vivo
Details: nude, mouse, po, 100 mg/kg
Assay metric: half-life (h)
Provide only the numeric value, understood in h.

half-life reading for O=c1cc(-c2ccnc(NC3CCOCC3)n2)ccn1[C@H](CO)c1ccc(Cl)c(F)c1 : 1.71

====

Test: in vivo
Conditions: nude, mouse, po, 30 mg/kg
Assay metric: half-life (h)
Provide only the numeric value, understood in h.

half-life reading for O=c1cc(-c2ccnc(NC3CCOCC3)n2)ccn1[C@H](CO)c1ccc(Cl)c(F)c1 : 2.33

====

Experiment: in vivo
Conditions: nude, mouse, po, 150 mg/kg
Assay metric: bioavailability (%)
Provide only the numeric value, understood in %.

bioavailability reading for O=c1cc(-c2ccnc(NC3CCOCC3)n2)ccn1[C@H](CO)c1ccc(Cl)c(F)c1 : 127

====

Experiment: in vivo
Settings: cynomolgus monkey, plasma, po, 5 mg/kg
Assay metric: AUC (µM·h)
Provide only the numeric value, understood in µM·h.

AUC reading for O=c1cc(-c2ccnc(NC3CCOCC3)n2)ccn1[C@H](CO)c1ccc(Cl)c(F)c1 : 3.3

====

Entries annotated with measured AUC
Experiment: in vivo
Conditions: CD-1, mouse, plasma, po, 5 mg/kg
Provide only the numeric value, understood in µM·h.

AUC reading for O=c1cc(-c2ccnc(NC3CCOCC3)n2)ccn1[C@H](CO)c1cccc(F)c1 : 1.72

AUC reading for O=c1cc(-c2ccnc(NC3CCOCC3)n2)ccn1[C@H](CO)c1cccc(Cl)c1 : 0.59

AUC reading for O=c1cc(-c2ccnc(NC3CCOCC3)n2)ccn1[C@H](CO)c1ccc(F)c(Cl)c1 : 2.18

AUC reading for O=c1cc(-c2ccnc(NC3CCOCC3)n2)ccn1[C@H](CO)c1ccc(Cl)c(F)c1 : 3.05

====

Experiment: in vivo
Conditions: cynomolgus monkey, po, 5 mg/kg
Assay metric: Cmax (nM)
Provide only the numeric value, understood in nM.

Cmax reading for O=c1cc(-c2ccnc(NC3CCOCC3)n2)ccn1[C@H](CO)c1ccc(Cl)c(F)c1 : 980

====

Test: in vivo
Conditions: nude, mouse, po, 5 mg/kg
Assay metric: bioavailability (%)
Provide only the numeric value, understood in %.

bioavailability reading for O=c1cc(-c2ccnc(NC3CCOCC3)n2)ccn1[C@H](CO)c1ccc(Cl)c(F)c1 : 139
